tested on: CHRF288-11; parameters: species or system AML cell lines (8); Primary HTS, single concentration about 10 uM, Cell Titer Glo viability; log10 luminescence, per cent inhibition relative to cycloheximide control; conditions: 72 h, relative to cycloheximide control, log10 luminescence; inhibitor
Answer each item with its documented CHRF288-11 %inh.

Sample records with CHRF288-11 %inh:
> print(dat)
                           structure.smiles       value.type  observed.result
1  Cn1cc(C2=C(c3cccc([N+](=O)[O-])c3)C(=O)NC2=O)c2ccccc21  CHRF288-11 %inh           36.65%
2  C=CC[C@@H]1[C@H](O)CC[C@@]2(C)[C@H]1CC[C@@H]1[C@@H]2CC[C@]2(C)[C@@H]([C@H](C)CCCC(C)C)CC[C@@H]12  CHRF288-11 %inh          -1.753%
3  CS(=O)(=O)CCNCc1ccc(-c2ccc3ncnc(Nc4ccc(OCc5ccccc5)cc4)c3c2)o1  CHRF288-11 %inh           1.417%

Continue with the molecule presented below.
Q: Which CHRF288-11 %inh value is on record for `O=C1NC(=NCc2ccccc2)S/C1=C\c1ccc2ncccc2c1` ?
A: 5.173%
